Can you tell me folding stability dG for the items I'm about to list?
B1: EHEE_rd2_0196 (parent)
chain: TETRTFDSEEEAKKAQKEAEKQGRTVTITRRDDRWEVRFD

variants of: B1; test: folding stability dG (cDNA display proteolysis); higher = more stable; conditions: PBS, room temperature
Answers are plain numbers, in kcal/mol.

R30E; 2.02

Batch lookup, folding stability dG per entry.
1. T25I
2. T27M

Output:
1: 2.99; 2: 2
